procedure_details: Toxicity liver stage against HepG2, at 10uM
Type: cell-based
Set-up: test concentration 10 uM, cell line HepG2-A16-CD81EGFP
measurement_setup: human, HepG2-A16-CD81EGFP cells; read-out: INHIBITION
Recorded cytotoxicity at 10 µM by entry

compound: N#Cc1ccc(N2CCC3(CC2)CC(N2CCOCC2)CO3)cc1 (configuration not stated)
cytotoxicity at 10 µM: 19%

compound: O=C(CN1C(=O)CCC1=O)N1CCC(CSCc2ccco2)CC1
cytotoxicity at 10 µM: -8%

Please give measured cytotoxicity at 10 µM of the following entry: O=C(NCCCn1ccnc1)N1CCCC1c1cccs1 (configuration not stated)
-8.31%

Answer with the recorded cytotoxicity at 10 µM for the compound listed here: `COc1cc(Cl)c(NCc2c(C)noc2C)cc1OC`
8.77%

Tell me measured cytotoxicity at 10 µM for Cc1cc(CN(C)C(=O)C(c2ccccc2C)N(C)C)on1 (configuration not stated) please.
3.65%

Please give measured cytotoxicity at 10 µM of the following entry: NC(=O)C1CCN(S(=O)(=O)c2cnn(-c3ccccc3)c2)C1 (configuration not stated)
7.68%

Let me know recorded cytotoxicity at 10 µM for `COc1c(NC(=O)N(C)CCOc2ccc(F)cc2)c(C)nn1C` , thanks.
1.4%

Provide one value: measured cytotoxicity at 10 µM of c1cnnc(N2CCCC2CNCc2cnc(N3CCCC3)nc2)c1 (configuration not stated)
7.96%

----------
procedure_details: Toxicity liver stage against HepG2, at 10uM
Assay type: cell-based
Design: test concentration 10 uM, cell line HepG2-A16-CD81EGFP
measurement_setup: human, HepG2-A16-CD81EGFP cells; read-out: INHIBITION
property_label: cytotoxicity at 10 µM (%)
Express your answer in %, writing the number without its unit.

Look over these answered cases.
molecule: CN(C)S(=O)(=O)N1CC[C@]2(O)CCN(Cc3cc(F)cc(F)c3)C[C@@H]2C1
property_label: cytotoxicity at 10 µM
reported_result: -0.757
//
molecule: CCN(C)C[C@@H]1CN(S(=O)(=O)c2ccc(OC)cc2)C[C@@H]1CO
property_label: cytotoxicity at 10 µM
reported_result: 14.8
//
molecule: CCS(=O)(=O)N1CC[C@@H]2[C@H](CC1)N(Cc1cccnc1)CCS2(=O)=O
property_label: cytotoxicity at 10 µM
reported_result: -3.12
//
molecule: CCC(=O)NCC(=O)N(C)C(c1ccc(Cl)cc1)c1cccnc1 (configuration not stated)
property_label: cytotoxicity at 10 µM
reported_result: 3.88
//
molecule: COCC1CC2(CCN(Cc3nccs3)CC2)CN1Cc1ccccn1 (configuration not stated)
property_label: cytotoxicity at 10 µM
reported_result: -98.4
//
molecule: Cc1cccc(C(CNC(=O)NCc2cc[nH]n2)N2CCOCC2)c1 (configuration not stated)
property_label: cytotoxicity at 10 µM
reported_result: -9.19

Name the recorded cytotoxicity at 10 µM of the item `CCCOc1ccc2ccccc2c1CN1CC[C@@]2(O)CCNC[C@H]2C1` in your answer.
-148

Assign cytotoxicity at 10 µM to the following record: `Cc1ccccc1CSc1nc(N)cc(N2CC[C@@H](O)C2)n1`
0.28

# return recorded cytotoxicity at 10 µM for input CC1N(c2cnn(C)c2)C(=O)COC12CCN(Cc1ccco1)CC2 (configuration not stated)
1.2

Provide one value: measured cytotoxicity at 10 µM of `CC1CCN(c2nc3cn(-c4ccc5c(c4)OCO5)c(=O)c-3c[nH]2)CC1`
-14

Provide one value: measured cytotoxicity at 10 µM of `C[C@@H]1CN(C(=O)c2cccn2C)C[C@]12CCN(c1ccsc1)C2=O`
-83.8

Item CCCc1nn(C2CCN(C3CC3)C2=O)c(=O)o1 (configuration not stated) : provide cytotoxicity at 10 µM
-13.7

Look up and state reported cytotoxicity at 10 µM for `O=C(c1coc(CN2CCN(c3ccccc3F)CC2)n1)N1CCCC1`
19.2

Please give measured cytotoxicity at 10 µM of the following entry: Cc1nc2n(n1)CC(NCc1nc(-c3cccnc3)no1)CC2 (configuration not stated)
-3.44

Give cytotoxicity at 10 µM for `Cc1ccc(S(=O)(=O)NC[C@H]2OC[C@@H](NCc3cccnc3)[C@@H]2O)cc1`
1.32

Tell us which cytotoxicity at 10 µM value is on record for CCOC(=O)N1CCCC2(CCCNC2)C1 (configuration not stated)
2.11
